- measurement_target: T1, ASCC2^1-434 (human, UniProt Q9H1I8 1-434)
- T1 construct: source: E. coli BL21 (DE3), purified (Ni-NTA, SEC); not shown: His6, N-terminal, cleaved
- T1 sequence (looked up): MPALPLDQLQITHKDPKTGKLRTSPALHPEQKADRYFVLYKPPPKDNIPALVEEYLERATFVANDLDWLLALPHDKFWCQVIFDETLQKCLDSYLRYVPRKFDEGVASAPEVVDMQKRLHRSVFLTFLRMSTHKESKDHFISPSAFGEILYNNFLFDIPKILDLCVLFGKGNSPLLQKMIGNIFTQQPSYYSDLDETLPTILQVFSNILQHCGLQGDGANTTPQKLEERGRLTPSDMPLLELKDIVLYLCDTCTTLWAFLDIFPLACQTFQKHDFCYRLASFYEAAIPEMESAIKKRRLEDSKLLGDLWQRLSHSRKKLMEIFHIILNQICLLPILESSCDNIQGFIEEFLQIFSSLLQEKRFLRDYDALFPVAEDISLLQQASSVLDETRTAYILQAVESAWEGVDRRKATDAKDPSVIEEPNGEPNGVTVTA
- measurement_notes: ITC; iTC200; ASCC3^1-22 peptide (10-15 µM) in the sample cell, ASCC2^1-434 (200 µM or 400 µM) in the syringe; 20 mM HEPES-NaOH, pH 7.5, 100 mM NaCl; 25 °C; stoichiometry fixed to 1
- experimental_context: both partners purified
Ends that are not written are not given here.
quantity_name: pKd
pKd field: float, defined as -log10 of concentration (mol/L).

Consider MALPRLTGALRSFSNVTKQDNY-NH2 (peptide, UniProt Q8N3C0 1-22, looked up, ASCC3, human, N-terminal 22 residues; also called WT ASCC3^1-22; source: synthetic peptide (GL biochem)) [ASCC3^1-22 peptide, wild type] . Its measured pKd is 5.70
